Target: Human immunodeficiency virus type 1 protease (Human immunodeficiency virus 1, UniProt Q72874)
OBSERVATION_TYPE: Ki (nM)

A: CC(C)[C@H](NC(=O)[C@H](NCc1ccccc1)[C@H](O)[C@H](Cc1ccccc1)NC(=O)[C@H](O)C(C)C)C(=O)NCc1ccccc1
B: CC(C)[C@H](NC(=O)[C@H](NCc1ccc(Cl)cc1)[C@H](O)[C@H](Cc1ccccc1)NC(=O)OC(C)(C)C)C(=O)NCc1nc2ccccc2[nH]1
Data request: Please compare: A and B . Report which one has the smaller Ki value. Respond with the label that goes with your answer.
Data returned: B

P: CC(C)[C@H](NC(=O)OCc1ccccc1)C(=O)N[C@@H](Cc1ccccc1)[C@@H](O)[C@@H](NCc1ccccc1)C(=O)N[C@H](C(=O)NCc1ccncc1)C(C)C
Q: COc1ccc(CN[C@@H](C(=O)NCC(=O)Nc2cnccc2N)[C@H](O)[C@H](Cc2ccccc2)NC(=O)[C@@H](NC(=O)OCc2ccccc2)C(C)C)cc1
Data request: Please compare: P and Q . Report which one has the smaller Ki value. Respond with the label that goes with your answer.
Data returned: P

a: COc1ccc(CN[C@@H](C(=O)NCC(=O)NCc2nc3ccccc3[nH]2)[C@H](O)[C@H](Cc2ccccc2)NC(=O)[C@@H](NC(=O)OCc2ccccc2)C(C)C)cc1
b: CC(C)[C@H](N)C(=O)N[C@@H](Cc1ccccc1)[C@@H](O)[C@@H](NCc1ccccc1)C(=O)N[C@H](C(=O)NCc1ccccc1)C(C)C
c: COc1ccc(CN[C@@H](C(=O)NCc2ccc(OC)cc2O)[C@H](O)[C@H](Cc2ccccc2)NC(=O)[C@@H](NC(=O)OCc2ccccc2)C(C)C)cc1
d: COc1ccc(CN[C@@H](C(=O)N[C@H](C(=O)NCc2nc3ccccc3[nH]2)C(C)C)[C@H](O)[C@H](Cc2ccccc2)NC(=O)[C@@H](NC(=O)CCc2ccc(O)c(I)c2)C(C)(C)C)cc1
Data request: Order field: Ki | Direction: descending (largest first) Put the labels in the order asked and list them.
Data returned: c, b, a, d

P: CC(C)[C@H](NC(=O)[C@H](NCc1ccccc1)[C@H](O)[C@H](Cc1ccccc1)NC(=O)[C@@H](NC(=O)CC1NC(=O)NC1=O)C(C)(C)C)C(=O)NCc1ccccc1 (stereo partly drawn)
Q: COc1ccc(CN[C@@H](C(=O)N[C@H](C(=O)NCc2nc3ccccc3[nH]2)C(C)C)[C@H](O)[C@H](Cc2ccccc2)NC(=O)[C@@H](NC(=O)OC(C)(C)C)C(C)C)cc1
Data request: When P and Q are compared, which has the higher number for Ki? Respond with the label that goes with your answer.
Data returned: Q

I: COc1ccc(CN[C@@H](C(=O)N[C@H]2c3ccccc3CC2O)[C@H](O)[C@H](Cc2ccccc2)NC(=O)[C@@H](NC(=O)c2cn3cccnc3n2)C(C)(C)C)cc1 (stereo partly drawn)
II: CCOc1ccc(CN[C@@H](C(=O)NCc2ccccc2)[C@H](O)[C@H](Cc2ccccc2)NC(=O)[C@@H](NC(=O)OCc2ccccc2)C(C)(C)C)cc1
III: CC(C)(C)OC(=O)N[C@@H](Cc1ccccc1)[C@@H](O)[C@@H](NCc1ccc(CNC(=O)CCc2nc3ccccc3[nH]2)cc1)C(=O)NCc1ccccc1
Data request: Order field: Ki | Direction: descending (largest first) Put the labels in the order asked and list them.
Data returned: III, II, I

I: CCOC(=O)[C@H](NCc1ccc(CN)cc1)[C@H](O)[C@H](Cc1ccccc1)NC(=O)[C@@H](NC(=O)OCc1ccccc1)C(C)C
II: CC(C)[C@H](NC(=O)OCCCCCN)C(=O)N[C@@H](Cc1ccccc1)[C@@H](O)[C@@H](NCc1ccccc1)C(=O)N[C@H](C(=O)NCc1ccccc1)C(C)C
III: COc1ccc(CN[C@@H](C(=O)N[C@H](C(=O)NCc2nc3ccccc3[nH]2)C(C)C)[C@H](O)[C@H](Cc2ccccc2)NC(=O)[C@@H](NC(=O)OCc2ccccc2)C(C)C)cc1OC
IV: CC(C)(C)[C@H](NC(=O)OCc1ccccc1)C(=O)N[C@@H](Cc1ccccc1)[C@@H](O)[C@@H](NCc1ccc(CNC(=O)CCc2nc3ccccc3[nH]2)cc1)C(=O)N[C@H]1c2ccccc2CC1O (stereo partly drawn)
Data request: Provide the items ranked by increasing Ki. Put the labels in the order asked and list them.
Data returned: IV, III, II, I
(IV: 4.07 nM, III: 12.6 nM, II: 33.1 nM, I: 2690 nM)

A: COc1ccc(CN[C@@H](C(=O)N[C@H](C(=O)NCC2CCCCC2O)C(C)C)[C@H](O)[C@H](Cc2ccccc2)NC(=O)[C@@H](NC(=O)OCc2ccccc2)C(C)C)cc1 (stereo partly drawn)
B: CC(C)[C@H](NC(=O)OCc1ccccc1)C(=O)N[C@@H](Cc1ccccc1)[C@@H](O)[C@@H](Nc1ccc(-c2ccccc2)cc1)C(=O)N[C@H](C(=O)NCc1nc2ccccc2[nH]1)C(C)C
Data request: When A and B are compared, which has the higher number for Ki? Respond with the label that goes with your answer.
Data returned: A
(A: 15.8 nM, B: 8.91 nM)
